- assay.target: human ether-à-go-go-related gene (hERG) potassium channel (human)
- protocol.summary: primary screen, population patch clamp on CHO cells stably expressing hERG; higher = less effect of the substance
The campaign covered roughly 310,000 compounds. About 14,000 (4.5%) showed an effect of 50% or more. Effects have a minus sign here. The entries come from a sample that favours strong results as a whole.
experimental.readout: hERG current change (%, negative = inhibition) at 10uM (%)

1) Cc1oc2c(CN3CCCCC3C)c(O)ccc2c(=O)c1-c1ccc(Br)cc1 (stereo not drawn); -50.9
2) O=C(CCn1cccc1)NC1CCCc2ccccc21 (stereo not drawn); 4.95
3) CCOC(=O)c1csc(NC(=O)CN2CCN(C)CC2)n1; 19
4) CCc1ccc[n+](-c2[nH]c(=O)sc2/C=N/N=C(\N)[O-])c1; -10
5) Cc1ccc(S(=O)(=O)NCc2n[nH]c(=S)n2C)cc1; 21
6) CCCn1c(N)c(C(=O)CN(C)CC(=O)Nc2ccccc2C(F)(F)F)c(=O)[nH]c1=O; -0.764

* * *

- assay.target: human ether-à-go-go-related gene (hERG) potassium channel (human, UniProt Q12809)
- Sequence (Q12809 whole entry, looked up): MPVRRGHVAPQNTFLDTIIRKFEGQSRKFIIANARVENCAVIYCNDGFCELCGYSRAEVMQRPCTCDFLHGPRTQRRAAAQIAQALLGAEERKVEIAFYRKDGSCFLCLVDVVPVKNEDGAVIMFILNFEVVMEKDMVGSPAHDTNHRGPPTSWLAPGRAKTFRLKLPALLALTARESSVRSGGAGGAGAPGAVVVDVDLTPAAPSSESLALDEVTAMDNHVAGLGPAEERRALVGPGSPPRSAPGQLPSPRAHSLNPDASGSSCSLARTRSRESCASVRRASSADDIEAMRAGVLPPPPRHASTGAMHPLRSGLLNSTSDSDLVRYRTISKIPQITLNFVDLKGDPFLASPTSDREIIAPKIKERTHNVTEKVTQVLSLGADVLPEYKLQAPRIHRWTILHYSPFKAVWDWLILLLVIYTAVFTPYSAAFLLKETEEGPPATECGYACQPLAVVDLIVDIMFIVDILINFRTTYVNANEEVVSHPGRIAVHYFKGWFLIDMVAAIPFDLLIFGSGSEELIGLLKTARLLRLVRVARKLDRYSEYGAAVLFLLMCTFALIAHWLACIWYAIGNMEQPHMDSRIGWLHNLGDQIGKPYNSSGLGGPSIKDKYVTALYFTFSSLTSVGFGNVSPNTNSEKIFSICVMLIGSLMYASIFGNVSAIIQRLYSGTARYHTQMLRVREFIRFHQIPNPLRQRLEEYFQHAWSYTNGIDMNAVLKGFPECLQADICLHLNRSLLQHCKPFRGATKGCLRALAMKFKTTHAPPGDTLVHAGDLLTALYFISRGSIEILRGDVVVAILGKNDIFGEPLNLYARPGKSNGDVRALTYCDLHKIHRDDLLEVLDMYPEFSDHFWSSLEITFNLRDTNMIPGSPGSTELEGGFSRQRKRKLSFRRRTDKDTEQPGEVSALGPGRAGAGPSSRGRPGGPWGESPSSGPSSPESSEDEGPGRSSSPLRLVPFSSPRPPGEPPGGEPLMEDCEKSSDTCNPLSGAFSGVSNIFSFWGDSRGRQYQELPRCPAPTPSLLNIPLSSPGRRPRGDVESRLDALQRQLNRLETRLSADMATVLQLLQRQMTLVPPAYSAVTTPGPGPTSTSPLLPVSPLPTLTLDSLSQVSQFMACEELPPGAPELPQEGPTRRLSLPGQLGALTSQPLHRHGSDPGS
- protocol.summary: primary screen, population patch clamp on CHO cells stably expressing hERG; higher = less effect of the substance
Hit rate of the full screen: of about 310,000 compounds, about 14,000 (4.5%) showed an effect of 50% or more. The effect is printed as a negative number. The full list was thinned out, with strong results kept by preference.
experimental.readout: hERG current change (%, negative = inhibition) at 10uM (%)

1) O=C1CSC(c2ccc(Cl)cc2)N1C1CCCCC1 (centres unmarked); -14.4
2) CS(=O)(=O)c1nc(S(=O)(=O)c2ccc(Cl)cc2)c(N2CCOCC2)s1; 12.1
3) CC(C)CCNc1nc(N)c([N+](=O)[O-])c(N2CCCCCC2)n1; 12.1
4) Cc1ccc(CNC(=O)CN2C(=O)COc3ccc(S(=O)(=O)N4CCCCC4)cc32)o1; 16
5) CS(=O)(=O)c1nc(S(=O)(=O)c2ccc(Cl)cc2)c(N2CCC3(CC2)OCCO3)s1; -59.3

* * *

- assay.target: human ether-à-go-go-related gene (hERG) potassium channel (human)
- protocol.summary: primary screen, population patch clamp on CHO cells stably expressing hERG; higher = less effect of the substance
Hit rate of the full screen: of about 310,000 compounds, about 14,000 (4.5%) showed an effect of 50% or more. The effect is printed as a negative number. The sample holds strong results, similar compounds and a random draw of the others, so the mix is not that of the screen.
experimental.readout: hERG current change (%, negative = inhibition) at 10uM (%)

1. CCOc1ccc(CCNC(=O)c2cnccn2)cc1OCC; 11.1
2. Cc1nc2cc(C(=O)NCCN3CCOCC3)ccc2n1-c1ccc(F)cc1F; -3.86
3. CCCNC(=O)c1ccc2nc(-c3ccccc3)c(-c3ccccc3)nc2c1; 9.38
4. FC(F)Oc1ccc(NC(=S)NCc2nc3ccccc3[nH]2)cc1; -79.2
5. Brc1ccc(CNCc2cccs2)cc1; -55.1
6. CCN1CCN(CCNC(=O)c2ccc3nc(-c4cccc(C)c4)c(-c4cccc(C)c4)nc3c2)CC1; -73.9
7. Cc1ccc(SCC(=O)Nc2oc(C)c3c(C)n[nH]c(=O)c23)cc1C; -27.6
8. CNC(=S)N(CCc1cccc(C)c1)Cc1cc2cc(OC)c(OC)cc2[nH]c1=O; -16.7
9. Brc1cccc(CNCc2cccs2)c1; -10.2
10. FC(F)Oc1ccc(NC(=S)Nc2ccc3cn[nH]c3c2)cc1; -79.5
11. Cc1n[nH]c(=O)c2c(NC(=O)CSc3nc4ccccc4c(=O)n3-c3ccc(OC(F)F)cc3)oc(C)c12; -59.2
12. CCOc1ccc(NC(=S)NCc2nc3ccccc3[nH]2)cc1; -74
13. CCn1c(SCC(=O)Nc2oc(C)c3c(C)n[nH]c(=O)c23)nc2sc(C)c(C)c2c1=O; -61.7
14. FC(F)Oc1ccc(NC(=S)NCc2ccccc2)cc1; -36.9
15. CC1=NN(C(C#N)c2ccc(F)cc2)C(c2ccccc2)C1 (stereo not drawn); 4.44
16. CCc1cccc(CC)c1NC(=S)NCc1nc2ccccc2[nH]1; 3.09
17. COCC(C)n1c(SCC(=O)Nc2oc(C)c3c(C)n[nH]c(=O)c23)nc2ccccc2c1=O (stereo not drawn); 6.9
18. O=C(COc1cccc2cccnc12)N/N=C1\SCC(=O)N1Cc1ccccc1; -44.8
19. CC1=C(C)NC(=S)SC1; 13.9
20. Cc1nnc(SCC(=O)N2CCCC2)n(N)c1=O; 14.1
21. Fc1ccc(CNC(=S)Nc2ccc(OC(F)F)cc2)cc1; -20.6

* * *

- assay.target: human ether-à-go-go-related gene (hERG) potassium channel (human);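 also: peak tail current of the secondary pulse compared with the same well before compound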
- protocol.summary: primary screen, population patch clamp on CHO cells stably expressing hERG; higher = less effect of the substance
The campaign covered roughly 310,000 compounds. About 14,000 (4.5%) showed an effect of 50% or more. Effects have a minus sign here. Many of the other results were omitted from the sample, so strong results are more common in it than they were.
The entries below come with measured hERG current change (%, negative = inhibition) at 10uM values attached.
experimental.readout: hERG current change (%, negative = inhibition) at 10uM (%)

1) C=CCn1c(CCNC(=O)c2cccs2)nnc1SCC(=O)Nc1cccc(C(C)=O)c1; 7.23
2) C=CCn1c(CCNC(=O)c2cccs2)nnc1SCC(=O)Nc1cccc(F)c1; -34.6
3) C=CCn1c(CCNC(=O)c2cccs2)nnc1SCC(=O)Nc1cccc(Cl)c1C; -57.6
4) CCOC(=O)N1CCN(C(=O)COc2cccc3c2CCN(Cc2ccc(F)cc2)C3=O)CC1; -61
5) O=C(NCCc1ccc(C(F)(F)F)cc1)C1CCC(=O)N(CCc2cccc(F)c2)C1 (stereo not drawn); -51.4
6) CCOC(=O)N1CCN(C(=O)COc2cccc3c2CCN(Cc2ccccc2F)C3=O)CC1; -31.4
7) O=C(NCCc1ccc(C(F)(F)F)cc1)C1CCC(=O)N(CCCc2ccccc2)C1 (stereo not drawn); -50.2
8) CCOC(=O)N1CCN(C(=O)COc2cccc3c2CCN(Cc2cccc(C)c2)C3=O)CC1; -53.6
9) C=CCn1c(CCNC(=O)c2cccs2)nnc1SCC(=O)c1ccc(Cl)cc1; -38.5

* * *

Here the recorded hERG current change (%, negative = inhibition) at 10uM is given for each entry.
- assay.target: human ether-à-go-go-related gene (hERG) potassium channel (human);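 also: peak tail current of the secondary pulse compared with the same well before compound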
- protocol.summary: primary screen, population patch clamp on CHO cells stably expressing hERG; higher = less effect of the substance
In all, about 310,000 compounds went through this assay and about 14,000 (4.5%) showed an effect of 50% or more. The effect is printed as a negative number. This is one part of a sample in which strong results are shown more often than they occur.
experimental.readout: hERG current change (%, negative = inhibition) at 10uM

1) O=C(CCC(=O)NNC(=O)COc1ccc(Br)cc1)NCc1ccccc1; 19.6%
2) COc1ccc(-n2cnnc2SCC(=O)NC2CCS(=O)(=O)C2)cc1 (centres unmarked); 8.52%
3) COC(=O)Cc1[nH]nc2c1C(c1c[nH]c3ccccc13)C(C#N)=C(N)O2 (centres unmarked); 17.8%
4) COc1ccc2c(c1OC)C(=O)OC2c1c(O)n(Cc2ccc(F)cc2)c(=O)[nH]c1=O (centres unmarked); 3.09%
5) CCN(CC)C(=O)N1CCc2ccccc21; 0.177%

* * *

Reported hERG current change (%, negative = inhibition) at 10uM values follow for various molecules
- assay.target: human ether-à-go-go-related gene (hERG) potassium channel (human);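 also: peak tail current of the secondary pulse compared with the same well before compound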
- protocol.summary: primary screen, population patch clamp on CHO cells stably expressing hERG; higher = less effect of the substance
Hit rate of the full screen: of about 310,000 compounds, about 14,000 (4.5%) showed an effect of 50% or more. The effect is printed as a negative number. The list comes from a sample in which strong results are over-represented; it also holds close analogues and randomly drawn compounds.
experimental.readout: hERG current change (%, negative = inhibition) at 10uM (%)

1) CC(=O)c1cc(CN2CCC(n3nccc3NC(=O)c3ccccc3)CC2)cs1; -10.9
2) CCOC(=O)N1CCN(c2nc(C)c3c(n2)CCCC3=O)CC1; 7.97
3) CCN(CC)C(=O)c1c2c(nc3ccccc13)-c1ccccc1CC2; -12.6
4) CC(=O)c1cc(CN2CCC(n3nccc3NC(=O)c3ccccc3Cl)CC2)cs1; -56.5
5) O=C1OCC/C1=C\c1ccc(O)cc1; 12.3

* * *

- assay.target: human ether-à-go-go-related gene (hERG) potassium channel (human);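 also: peak tail current of the secondary pulse compared with the same well before compound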
- protocol.summary: primary screen, population patch clamp on CHO cells stably expressing hERG; higher = less effect of the substance
Hit rate of the full screen: of about 310,000 compounds, about 14,000 (4.5%) showed an effect of 50% or more. The effect is printed as a negative number. What follows is part of a selection rich in strong results, with near analogues and random picks from the rest.
Property: hERG current change (%, negative = inhibition) at 10uM; scope: individual compounds
experimental.readout: hERG current change (%, negative = inhibition) at 10uM (%)

1) C#Cc1ccc(CN2CCC(Oc3ccc(C(=O)NCc4ccccn4)cc3)CC2)cc1; -25
2) O=C(Nc1ccc(Oc2ccccc2)nc1)C1CCN(Cc2ccco2)CC1; -30.8
3) CCn1cc(CN2CCC(C(=O)Nc3ccc(Oc4ccccc4)nc3)CC2)cn1; -30.3
4) Cc1ccc(C)c(Cn2nnc3c(=O)[nH]c(C(=O)Nc4ccc(F)cc4)nc32)c1; 28.5
5) COC(=O)c1ccc(N2C(=O)C3CC(C)=C(C)CC3C2=O)cc1 (centres unmarked); 3.73
